# TEST_DESCRIPTION: qHTS drug screen for cell cycle checkpoint inhibitors in PARPi-resistant BRCA-mutant ovarian cancer cell lines. (AID 1963452)
# COND: PEO1/OlaR viability, CellTiter-Glo luminescence, 96 h; measured here: PEO4 Z-AUC; stronger effect = lower value
ATTRIBUTE_MEASURED: Z-AUC

In [3]: df
Out[3]:
                              smiles_string  readout_value
0  O=C1NC(=O)/C(=C/c2ccc(-c3ccc(F)cc3O)o2)S1         -0.191
1  CCNC(=O)[C@H]1O[C@@H](n2cnc3c(N)nc(NCCc4ccc(CCC(=O)O)cc4)nc32)[C@H](O)[C@@H]1O           1.15
2        COc1cc(CNC(=O)CCCC/C=C/C(C)C)ccc1O           1.46
3  O=C(Nc1ccc2c(c1)CCN(Cc1ncn[nH]1)C2)c1ccccc1-c1ccc(C(F)(F)F)cc1           0.47
4  CCOC(=O)N1CCN(/[N+]([O-])=N/Oc2ccc([N+](=O)[O-])cc2[N+](=O)[O-])CC1           1.39
